Measured SPOT peptide array binding signal intensity, listed per entry.
subject_of_test: AgLsb1
procedure_text: SPOT peptide array binding signal intensity (averaged, normalized) (arbitrary units (background-subtracted, floor 0; scale differs between SH3 domains)); higher = stronger binding of the SH3 domain to the peptide
reported_endpoint: SPOT peptide array binding signal intensity

>  <binder>
RKRRTHLRLPLIRSN

>  <cmp>
≤

>  <value_reported>
0

$$$$
>  <binder>
PSRRDSLSIPRAVDA

>  <cmp>
=

>  <value_reported>
13.5

$$$$
>  <binder>
TTNRGPPPLPPRANV

>  <cmp>
=

>  <value_reported>
513

$$$$
>  <binder>
QLMKNLPKIPLLNDI

>  <cmp>
=

>  <value_reported>
1.75

$$$$
>  <binder>
MPAPPPPPPPPPGAF

>  <cmp>
≤

>  <value_reported>
0

$$$$
>  <binder>
GLRRARYKFPGQQKI

>  <cmp>
=

>  <value_reported>
17.2

$$$$
>  <binder>
IHTRRPSSTSQYLIR

>  <cmp>
=

>  <value_reported>
242

$$$$
>  <binder>
RRASLFPRDPKRLRP

>  <cmp>
=

>  <value_reported>
1

$$$$
>  <binder>
YVRRRPRVRLEPLLS

>  <cmp>
=

>  <value_reported>
17.2

$$$$
>  <binder>
AIPPPVPNRPGGTTN

>  <cmp>
=

>  <value_reported>
373

$$$$
>  <binder>
RLSRLLLSLPPESFT

>  <cmp>
=

>  <value_reported>
17.8

$$$$
>  <binder>
LYEAMPPTLPHRDWK

>  <cmp>
=

>  <value_reported>
30.5

$$$$
>  <binder>
FVLRYYILIPHEQWD

>  <cmp>
=

>  <value_reported>
3

$$$$
>  <binder>
GKFIPSRPAPKPPSS

>  <cmp>
=

>  <value_reported>
218

$$$$
>  <binder>
VATSTSPKLPPRGKQ

>  <cmp>
=

>  <value_reported>
290

$$$$
>  <binder>
GSKSGPPPRPKKPST

>  <cmp>
≤

>  <value_reported>
0

$$$$
>  <binder>
PAPPPPPRASRPTPN

>  <cmp>
=

>  <value_reported>
6.5

$$$$
>  <binder>
NMLKKKPLKKPLKRF

>  <cmp>
=

>  <value_reported>
1

$$$$
>  <binder>
VGFRLALKFPSRITG

>  <cmp>
=

>  <value_reported>
17.2

$$$$
>  <binder>
IPSRPAPKPPSSASA

>  <cmp>
=

>  <value_reported>
475

$$$$
>  <binder>
PHNPSPFFPPPDFND

>  <cmp>
=

>  <value_reported>
3

$$$$
>  <binder>
TKIRRRPQQPLTDFT

>  <cmp>
=

>  <value_reported>
22

$$$$
>  <binder>
LEFRAILFIPKRAPF

>  <cmp>
=

>  <value_reported>
1.5

$$$$
>  <binder>
GRSRLFPHSPLGRSS

>  <cmp>
=

>  <value_reported>
0.75

$$$$
>  <binder>
RRGPAPPPPPRASRP

>  <cmp>
=

>  <value_reported>
80.2

$$$$
>  <binder>
AAAPKHAPPPVPNET

>  <cmp>
≤

>  <value_reported>
0

$$$$
>  <binder>
KTITLEVESSDTIDN

>  <cmp>
≤

>  <value_reported>
0

$$$$
>  <binder>
QQNRPLPQLPNRNNR

>  <cmp>
=

>  <value_reported>
148

$$$$
>  <binder>
RSVKRPRRAPRPVVS

>  <cmp>
=

>  <value_reported>
4.5

$$$$
>  <binder>
GERSRPLVISILSSA

>  <cmp>
≤

>  <value_reported>
0

$$$$
